# study system: recombinant DYRK1A kinase (Homo sapiens (Human), UniProt Q13627)
# experimental protocol: DYRK1A kinase assay (Ser/Thr 18 peptide Z-lyte, FRET)
Threshold 20 nM: EC50 strictly smaller gives y, otherwise n.

Answered cases to consult:
# compound, study system, label class
records = [
    ("CN1CCN(C[C@H]2CC[C@H](C(=O)Nc3cc4cc(-c5cnccn5)ccc4cn3)CC2)CC1", "recombinant DYRK1A kinase (Homo sapiens (Human), UniProt Q13627)", "y"),
    ("CN1CCN(c2cc(C(=O)Nc3cc4cc(-c5ccc(N)nc5)ccc4cn3)ccn2)CC1", "recombinant DYRK1A kinase (Homo sapiens (Human), UniProt Q13627)", "y"),
    ("CC(C)(O)CN1CCCC(C(=O)Nc2cc3cc(-c4cnccn4)ccc3cn2)CC1 (centres unmarked)", "recombinant DYRK1A kinase (Homo sapiens (Human), UniProt Q13627)", "n"),
    ("[2H]c1nc([2H])c(-c2ccc3cnc(NC(=O)CN4CCOCC4)cc3c2)c([2H])c1[2H]", "recombinant DYRK1A kinase (Homo sapiens (Human), UniProt Q13627)", "y"),
    ("CN1CCN(CC(=O)Nc2cc3cc(-c4cncc(F)c4)ccc3cn2)CC1", "recombinant DYRK1A kinase (Homo sapiens (Human), UniProt Q13627)", "n"),
]

// next entry
In: Bench note: check whether CN1CCC(C(=O)Nc2cc3cc(-c4cncc(F)c4)ccc3cn2)CC1 shows EC50 below 20 nM
Out: y

###

Collected EC50 values appear next to each entry.
# study system: recombinant GSK3β kinase (Homo sapiens (Human))
# Sequence (P49841 whole entry): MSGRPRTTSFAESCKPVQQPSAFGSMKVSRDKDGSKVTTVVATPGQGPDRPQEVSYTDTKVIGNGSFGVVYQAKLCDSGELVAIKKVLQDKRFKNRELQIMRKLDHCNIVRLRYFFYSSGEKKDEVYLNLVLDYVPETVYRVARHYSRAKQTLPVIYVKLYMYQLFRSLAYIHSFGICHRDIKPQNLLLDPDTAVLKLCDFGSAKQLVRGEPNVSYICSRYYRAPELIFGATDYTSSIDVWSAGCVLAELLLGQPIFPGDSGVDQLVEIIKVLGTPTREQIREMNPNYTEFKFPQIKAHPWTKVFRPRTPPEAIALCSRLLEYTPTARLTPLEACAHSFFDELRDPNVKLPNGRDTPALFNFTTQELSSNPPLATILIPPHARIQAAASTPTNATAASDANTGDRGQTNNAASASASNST
# experimental protocol: GSK3β kinase assay (Ser/Thr 09 peptide Z-lyte, FRET);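 also: FRET read-out as coumarin over fluorescein emission ratio, compounds incubated one hour at room temperature, IC50 from dose-response curve fit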
# Format: biochemical
# setup conditions: GSK3β kinase; head says EC50, method says IC50; ATP 46 μM
The reply should contain only the number, in µM.

The examples below pair each entry with its known result.
# molecule, recorded number
data = [
    ("CC(C)Nc1cncc(-c2ccc3cnc(NC(=O)c4cn(C5CCN(C(C)C)CC5)nn4)cc3c2)n1 [Compound 96]", 3),
    ("CN1CCC(n2cc(C(=O)Nc3cc4cc(-c5cncc6[nH]ccc56)ccc4cn3)cn2)CC1 [Compound 128]", 9.07),
]

Pending molecule:
In: Provide only the value of recorded EC50 for CN1CCC(Nc2cncc(-c3ccc4cnc(NC(=O)C5CCC5)cc4c3)n2)CC1 [Compound 113]
Out: 0.067

###

Collected inhibition at 10 µM values appear next to each entry.
# Tested on: SW480 colon carcinoma cells
# experimental protocol: Cell viability assay (CellTiter-Glo)
# Format: cell-based, human
# setup conditions: Homo sapiens, read-out: percent inhibition at 10 μM (given for EC50 >10 μM), 10 μM
# Description: SW480 colon carcinoma cells were transduced with a lentiviral vector expressing luciferase with a human Sp5 promoter consisting of a sequence of eight TCF/LEF binding sites. SW480 cells stably expressing the Sp5-Luc reporter gene and a hygromycin resistance gene were selected by treatment with 150 μg/mL of hygromycin for 7 days. These stably transduced SW480 cells were expanded in cell culture and used for all further screening activities. […]
The reply should contain only the number, in %.

# structure notation, measure unit, inhibition at 10 µM
records = [
    ("CN1CCC(C(=O)Nc2cc3cc(-c4cncc(C#N)c4)ccc3cn2)CC1", "%", 8.8),
    ("CC(C)N1CCC(c2nc(C(=O)Nc3cc4cc(-c5cccnc5)ccc4cn3)co2)CC1", "%", 39),
    ("O=C(CCN1CCOCC1)Nc1cc2cc(-c3cncc(F)c3)ccc2cn1", "%", 24.8),
    ("O=C(CN1CCOCC1)Nc1cc2cc(-c3cccnn3)ccc2cn1", "%", 17.5),
    ("CN1CCN(c2cc(C(=O)Nc3cc4cc(-c5ccccn5)ccc4cn3)ccn2)CC1", "%", 21.3),
    ("COc1cncc(-c2ccc3cnc(NC(=O)CN4CCOCC4)cc3c2)c1", "%", 5.3),
]

In: Provide only the value of recorded inhibition at 10 µM for CN1CCN(c2cc(C(=O)Nc3cc4cc(-c5ccc(N(C)C)nc5)ccc4cn3)ccn2)CC1
Out: 37.1
